Cited source: ChEMBL document CHEMBL1201862

Test system: SNB-78
run description: NCI tumour cell line growth inhibition, 48 h
Active and inactive are the calls of the source. Rule as the data show it: active = GI50 up to about 1.1 µM and inactive = higher.
Your answer must be one of the following: active, inactive

Below are worked cases with known answers.
O=C(c1ccccc1)c1cn(/N=C\c2ccccc2)c(=O)nc1-c1ccccc1 = inactive
O=C(Nc1ccc([N+](=O)[O-])cc1Cl)c1cccc([N+](=O)[O-])c1O = inactive
Cn1cnnc1Sc1c([N+](=O)[O-])nc(-c2ccc([N+](=O)[O-])cc2)n1C = inactive
CCCNc1ncnc2c1cnn2C = inactive
O/N=C1/C(=C/c2ccc3c(c2)OCO3)CCCC1C(NO)c1ccc2c(c1)OCO2 (centres undefined) = inactive
O=C1C2c3[nH]c4ccccc4c3C3CCCCC3C2C(=O)N1c1ccccc1 (centres undefined) = inactive

Data request: Please let me know the test result on file for C=C1C(=O)OC2CC(C)C3C4OC4C(O)C3(C)C(O)C12 (centres undefined) .
Data returned: inactive

Data request: What is the recorded call for this molecule in the test? c1ccc(CNn2nnc3ccccc32)cc1
Data returned: inactive

Data request: Field: outcome | Entry: C=CC(OCC)(OCC)OCC
Data returned: inactive

* * *

Tested on: NCI-H460
run description: NCI tumour cell line growth inhibition, 48 h
Activity calls are given as the source filed them. Rule as the data show it: active = GI50 up to about 1.1 µM and inactive = higher.
measured metric: GI50

Some solved cases for reference:
O=c1oc2ccccc2cc1P(=O)(O)O = > 100 µM (inactive)
COC1=C2C[C@H](O)C(C)C[C@@]2(OC)OC1=O (stereo partly specified) = > 100 µM (inactive)
O=c1c2c(c1=O)-c1ccccc1CN2 = > 100 µM (inactive)
CCCCCCCCCCCCCCC(C)CCC(=O)O (stereo unspecified) = 31.9 µM (inactive)
Nn1c(Nc2ccc(S(N)(=O)=O)cc2)nnc(/C=C/c2c(O)ccc3ccccc23)c1=O = 26.7 µM (inactive)

Data request: Indicate the recorded GI50 value for this compound: O=C(OC1CCC(=C2SCCCS2)[C@H]1C1SCCCS1)c1ccccc1 (stereo partly specified)
Data returned: > 100 µM (inactive)

Data request: Check the records and state GI50 for C[N+](C)(C)CC1CCCC(C[N+](C)(C)C)C1=NO (stereo unspecified)
Data returned: > 100 µM (inactive)

Data request: Identify GI50 associated with the compound Cc1ccc(/N=N/c2c(-c3ccccc3)nn(C(=O)CC(=O)Nc3ccc(Cl)cc3)c2-c2ccccc2)cc1
Data returned: > 100 µM (inactive)

Data request: Give reported GI50 value for Oc1ccc(Cl)cc1C1=NC(NCN2CCN(CNC3=NC(c4ccccc4)CC(c4cc(Cl)ccc4O)=N3)CC2)=NC(c2ccccc2)C1 (stereo unspecified)
Data returned: 35.2 µM (inactive)

Data request: Retrieve GI50 measured for CCOC(=O)Cn1nc2ccc(Nc3c(C)[n+]([O-])c4cc(F)c(OCC)cc4[n+]3[O-])cc2n1 and print it.
Data returned: > 100 µM (inactive)

Data request: Answer with reported GI50 of c1ccc(CNn2nnc3ccccc32)cc1
Data returned: > 100 µM (inactive)

* * *

System: Malme-3M
run description: NCI tumour cell line growth inhibition, 48 h
The source made the active and inactive calls. No stated cut-off is given here; in the data, active = GI50 up to about 1.1 µM and inactive = higher.
Write down the outcome that applies. Available outcomes: active, inactive

COCc1cc2c(s1)C(=O)C1=C(C2=O)C2(C=C(Br)C(=O)C(Br)=C2)CCN1 = active
NC(=S)N/N=C/c1ccc(OC(=O)COc2ccccc2Cl)cn1 = inactive
COc1cc(NC(C)=O)ccc1C(=O)NN1C(=O)/C(=C/c2ccco2)N=C1c1ccccc1 = inactive
CC1=CCC(O)C=CC(C)C(O)C(C)C=C(C)C(=O)c2c(O)c(C)cc3c2C(=O)C(N)=C(NC(=O)/C=C\C=C/C=CC(C)C(O)CC1=O)C3=O (centres undefined) = inactive
O=[N+]([O-])c1ccc(Sc2c3ccccc3nc3ccccc23)cc1 = inactive
CC(=O)OC[C@@H](OC(C)=O)[C@@H](OC(C)=O)[C@H]1OC[C@@H]2C[C@H]([C@H]1OC(C)=O)N(Cc1ccccc1)O2 = inactive

Data request: Which result was noted for this compound in the test: COc1cc(O)ccc1C(=S)SC
Data returned: inactive

Data request: For C/C(=N\NC(=S)NNC(=S)N(C)c1ccccc1)c1ccccn1 , which call appears in the assay record?
Data returned: inactive

Data request: Write down the call the test reported for this compound. Item: N#Cc1nc(CSCc2ccccc2)oc1N
Data returned: inactive
